molecular target: vaccinia DNA topoisomerase IB (vTopo) (Vaccinia virus, UniProt P68698); assay: biochemical; details: read-out: % Inhibition (plasmid SC release assay)
propertyLabel: inhibition at 5 µM (%)
Please state the figure in %; there is no need to write the unit.

Please review the entries below; each comes with its answer.
>  <molecule>
Cc1ccc(S(=O)(=O)C2C(C3COC(C)(C)O3)OC3OC(C)(C)OC32)cc1 (centres unmarked) [NSC 14163]

>  <numericValue>
50

$$$$
>  <molecule>
O=C(O)C(O)(c1ccc(-c2ccccc2)cc1)c1ccc(-c2ccccc2)cc1 [NSC 28086]

>  <numericValue>
100

$$$$
>  <molecule>
CC(=O)c1ccccc1C(=O)c1ccc(C(=O)O)c(C(=O)O)c1 [NSC 28620]

>  <numericValue>
100

$$$$

Qu. // query inhibition at 5 µM value for entry Oc1cc(O)c2c(c1)OC(c1ccc(O)c(O)c1)C(O)C2c1c(O)cc(O)c2c1OC(c1ccc(O)c(O)c1)C(O)C2 (centres unmarked) [NSC 143099]
Ans. 100

Qu. // query inhibition at 5 µM value for entry CC(CCC(=O)O)(c1cc(Br)c(O)c(Br)c1)c1cc(Br)c(O)c(Br)c1 [NSC 21588]
Ans. 100

###

target: vaccinia DNA topoisomerase IB (vTopo) (Vaccinia virus, UniProt P68698); test: biochemical; conditions: 0.5 h, read-out: % vTopo activity
# note: boundary value 30% maps to n; remaining activity at 100 µM below it maps to y

Answered cases to consult:
>  <compound>
CN(C)Cc1cc(O)c(O)c(CN(C)C)c1

>  <classLabel>
n

$$$$
>  <compound>
O=[N+]([O-])/C=C/c1cc2ccccc2[nH]1

>  <classLabel>
n

$$$$
>  <compound>
C/C(=N\CC(=O)O)c1ccccc1

>  <classLabel>
n

$$$$
>  <compound>
O=C(O)Cc1c(O)ccc2ccccc12

>  <classLabel>
n

$$$$
>  <compound>
O=C(O)C(=O)Cc1ccc2c(c1)OCO2

>  <classLabel>
y

$$$$
>  <compound>
CNCSC(C)c1ccc(O)c(O)c1 (stereo not drawn)

>  <classLabel>
y

$$$$

Qu. Lab log: compare recorded remaining activity at 100 µM with 30%; is it strictly lower for C/C(=N\C1CCCCC1)c1ccccc1O ?
Ans. y

Qu. Lab log: compare recorded remaining activity at 100 µM with 30%; is it strictly lower for O=C(O)CSCc1ccc(N=C=S)c(O)c1 ?
Ans. n

Qu. Lab log: compare recorded remaining activity at 100 µM with 30%; is it strictly lower for N#C/C(=C\Nc1ccccn1)C(=O)c1ccco1 ?
Ans. y

Qu. Lab log: compare recorded remaining activity at 100 µM with 30%; is it strictly lower for O=C(O)CCc1ccc(-c2ccccc2)[nH]1 ?
Ans. n

Qu. Lab log: compare recorded remaining activity at 100 µM with 30%; is it strictly lower for CCC(=C(C)C)c1ccc(Oc2cccc(C(=O)O)c2)cc1 ?
Ans. n

###

target: vaccinia DNA topoisomerase IB (vTopo) (Vaccinia virus); assay: biochemical; conditions: 100 µM
propertyLabel: % Inhibition (RNAse HTS)

>  <compound>
O=C(O)c1cnc2c(ccc3ncc(C(=O)O)c(O)c32)c1O [NSC 1288884]

>  <assaySystem>
vaccinia DNA topoisomerase IB (vTopo) (Vaccinia virus)

>  <% Inhibition (RNAse HTS)>
Partial @100 μM

$$$$
>  <compound>
Cc1ccc(NC(=[OH+])c2cc3ccccc3cc2O)c(C)c1.Cc1ccc(NC(=[OH+])c2cc3ccccc3cc2O)c(C)c1.[Ni] [NSC 306698]

>  <assaySystem>
vaccinia DNA topoisomerase IB (vTopo) (Vaccinia virus)

>  <% Inhibition (RNAse HTS)>
100% @100 μM

$$$$
>  <compound>
CCC(O)[NH+]1CC[NH+](C(O)CC)CC1.[Cl][Pt-2]([Cl])([Cl])([Cl])([Cl])[Cl] (centres unmarked) [NSC 295558]

>  <assaySystem>
vaccinia DNA topoisomerase IB (vTopo) (Vaccinia virus)

>  <% Inhibition (RNAse HTS)>
100% @

$$$$
>  <compound>
Cc1cc(Cl)nc2ccc(Cc3ccc4nc(Cl)cc(C)c4c3)cc12 [NSC 109451]

>  <assaySystem>
vaccinia DNA topoisomerase IB (vTopo) (Vaccinia virus)

>  <% Inhibition (RNAse HTS)>
Partial @100 μM

$$$$
>  <compound>
CC[C@@]1(O)C(=O)OCc2c1cc1n(c2=O)Cc2cc3ccccc3nc2-1 [NSC 100880]

>  <assaySystem>
vaccinia DNA topoisomerase IB (vTopo) (Vaccinia virus)

>  <% Inhibition (RNAse HTS)>
Partial @100 μM

$$$$

Qu. // query % Inhibition (RNAse HTS) value for entry COc1ccc2c3c([nH]c2c1)C1CC2C(CC(O)C(OC)C2C(=O)O)CN1CC3 (centres unmarked) [NSC 81463]
Ans. Partial @100 μM

Qu. // query % Inhibition (RNAse HTS) value for entry Nc1ncnc2nc[nH]c12.Nc1ncnc2nc[nH]c12.[Cl][Pt]([Cl])([Cl])[Cl] [NSC 177395]
Ans. 100% @

Qu. // query % Inhibition (RNAse HTS) value for entry COc1ccc(/C=N/c2c(O)ccc3ccccc23)cc1OC [NSC 17061]
Ans. Partial @100 μM
